- tested.system: T1, cynomolgus monkey SIRPγ on CHO cells (cynomolgus monkey, UniProt Q9P1W8 29-386 (human entry))
- T1 construct: also called Cyno SIRPγ CHO
- T1 chain: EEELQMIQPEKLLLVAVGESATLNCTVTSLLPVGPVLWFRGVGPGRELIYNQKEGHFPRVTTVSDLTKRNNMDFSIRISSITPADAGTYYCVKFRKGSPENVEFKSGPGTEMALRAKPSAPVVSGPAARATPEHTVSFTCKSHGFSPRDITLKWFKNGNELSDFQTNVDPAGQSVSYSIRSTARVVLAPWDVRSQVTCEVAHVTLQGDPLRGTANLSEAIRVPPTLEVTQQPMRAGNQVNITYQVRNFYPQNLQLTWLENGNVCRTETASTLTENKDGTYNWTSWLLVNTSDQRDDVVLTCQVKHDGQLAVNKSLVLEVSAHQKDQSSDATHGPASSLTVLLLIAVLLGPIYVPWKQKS
- protocol: flow cytometry, myc-scFv PPE
Listing of recorded MFI fold change over parental CHO by entry.
quantity.kind: MFI fold change over parental CHO (fold)

binder	units.text	quantitative.result
Antibody 16 (scFv, V domains shown, scFv in crude PPE, V5/myc-tagged) VH: QVQLVQSGAEVKKPGASVKVSCKASGYTFTSYYMHWVRQAPGQGLEWMGWINPNSGNAGFAQKFQGRVTMTRDTSTSTVYMELSSLRSEDTAVYYCARGPVYSYGPFDYWGQGTLVTVSS VL: DIQMTQSPSSLSASVGDRVTITCRASQGISTYLAWYQQKPGKAPKLLIYAASTLQSGVPSRFSGSGSGTDFTLTISSLQPEDFATYYCQQSHSAPITFGQGTKVEIK	fold	16.3
Antibody 47 (scFv, V domains shown, scFv in crude PPE, V5/myc-tagged) VH: QVQLVQSGAEVKKPGASVKVSCKASGYTFTTYGISWVRQAPGQGLEWMGWMDPNSGSTGYAQKFQGRVTMTRDTSTSTVYMELSSLRSEDTAVYYCARGRGNSYYYYYMDVWGKGTTVTVSS VL: DIQMTQSPSSLSASVGDRVTITCRASQRIGSYLNWYQQKPGKAPKLLIYGASNLQSGVPSRFSGSGSGTDFTLTISSLQPEDFATYYCQQANSFPFTFGPGTKVDIK	fold	14.2
Antibody 14 (scFv, V domains shown, scFv in crude PPE, V5/myc-tagged) VH: QVQLVQSGAEVKKPGASVKVSCKASGYTFTSYYMHWVRQAPGQGLEWMGWVDPNNGDTGYAQKFQGRVTMTRDTSTSTVYMELSSLRSEDTAVYYCARDNWGSLDVWGKGTTVTVSS VL: DIVMTQSPLSLPVTPGEPASISCRSSQSLLHSNGYNYLDWYLQKPGQSPQLLIYAASTLQSGVPDRFSGSGSGTDFTLKISRVEAEDVGVYYCMQGLQTLYSFGQGTKLEIK	fold	18
Antibody 43 (scFv, V domains shown, scFv in crude PPE, V5/myc-tagged) VH: QVQLVQSGAEVKKPGASVKVSCKASGGTFTSYDINWVRQAPGQGLEWMGWISAYNGHTNYAQNLQGRVTMTRDTSTSTVYMELSSLRSEDTAVYYCAREDSSWYFDLWGRGTLVTVSS VL: DIQMTQSPSSLSASVGDRVTITCRASQSISSWLAWYQQKPGKAPKLLIYDASNLETGVPSRFSGSGSGTDFTLTISSLQPEDFATYYCQQSFSTPPTFGQGTKVEIK	fold	22.7
Antibody 46 (scFv, V domains shown, scFv in crude PPE, V5/myc-tagged) VH: QVQLVQSGAEVKKPGASVKVSCKASGYTFSSYAISWVRQAPGQGLEWMGWMDPNSGNTGYAQKFQGRVTMTRDTSTSTVYMELSSLRSEDTAVYYCARESSYYYDSSGYYPGWYFDLWGRGTLVTVSS VL: DIQMTQSPSSLSASVGDRVTITCQASQDISNYLNWYQQKPGKAPKLLIYAASTLQTGVPSRFSGSGSGTDFTLTISSLQPEDFATYYCQQSYSTPWTFGPGTKVDIK	fold	16
